# assayed_target: PrfA (Listeria monocytogenes serovar 1/2a, UniProt P22262)
# Sequence (P22262 whole entry): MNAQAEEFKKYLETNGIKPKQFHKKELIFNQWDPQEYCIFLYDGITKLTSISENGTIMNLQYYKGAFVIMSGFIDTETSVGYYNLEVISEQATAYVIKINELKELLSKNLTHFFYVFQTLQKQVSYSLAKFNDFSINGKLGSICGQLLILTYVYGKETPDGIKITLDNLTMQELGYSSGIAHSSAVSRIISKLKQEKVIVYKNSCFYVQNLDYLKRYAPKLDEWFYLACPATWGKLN
# assay_explanation: biochemical
# Assay type: binding
# Parameters: His tag (inferred from pET28a vector and nickel-column purification); made in house; host or cells: E. coli BL21
pKd: −log10 of the molar value. Residues, ends and D or L forms follow the SMILES beside them.
Readings of pKd for the listed molecules

Ask: Name the recorded pKd of the item CC(C)C[C@H](NC(=O)[C@@H](N)CC(C)C)C(=O)O in your answer.
Reply: ~4.60

Read the next record carefully.
Ask: Name the recorded pKd of the item CC(C)C[C@H](NC(=O)[C@H](CC(C)C)NC(=O)[C@@H](N)CC(C)C)C(=O)O [LLL] (H-Leu-Leu-Leu-OH) in your answer.
Reply: ~4.60
